Target: HLA-A*02:01 (Homo sapiens, UniProt P04439, D140Y/D185E/D98H/E176V/E277Q/G131W/G231S/I119V/I121R/I166T/I218V/L300P/L318F/N151K/N90K/P208A/P217A/Q86G/Q94H/R138H/R169H/T345S)
Assay: MHC binding assay (UV-ligand exchange, β2m ELISA, peptide exchange yield)
Conditions: MHC class I binding score; binding to HLA-A*02:01 ranged by peptide exchange yield (UV-ligand exchange, β2m ELISA)
assay-metric: Peptide exchange

The cases that follow already have their Peptide exchange on record.
507 (KLIDDQDISISL; listed as Homo sapiens) [compound 507] ... “+++” (≧50 = +++)
440 (ALADGVTMQV; listed as Homo sapiens) [compound 440] ... “++” (≧20% = ++)
6 (VLVSDGVHSV; listed as Homo sapiens) [compound 6] ... “+++” (≧50 = +++)
320 (KMFEFVEPLL; listed as Homo sapiens) [compound 320] ... “++++” (≧75% = ++++)
92 (YLIPFTGIVGL; listed as Homo sapiens) [compound 92] ... “++” (≧20% = ++)
426 (RLADKSVLV; listed as Homo sapiens) [compound 426] ... “+++” (≧50 = +++)
143 (LLLDITPEI; listed as Homo sapiens) [compound 143] ... “++++” (≧75% = ++++)
500 (SLMEDQVLQL; listed as Homo sapiens) [compound 500] ... “+++” (≧50 = +++)

Which measured Peptide exchange value corresponds to 620 (KLLNKIYEA; listed as Homo sapiens) [compound 620] ?
“++++” (≧75% = ++++)

Which measured Peptide exchange value corresponds to 242 (AIAYILQGV; listed as Homo sapiens) [compound 242] ?
“++” (≧20% = ++)

====

Biological target: HLA-A*02:01 (Homo sapiens, UniProt P04439, D140Y/D185E/D98H/E176V/E277Q/G131W/G231S/I119V/I121R/I166T/I218V/L300P/L318F/N151K/N90K/P208A/P217A/Q86G/Q94H/R138H/R169H/T345S)
Experiment: MHC binding assay (UV-ligand exchange, β2m ELISA, peptide exchange yield)
Conditions: MHC class I binding score; binding to HLA-A*02:01 ranged by peptide exchange yield (UV-ligand exchange, β2m ELISA)
Source text: Candidate peptides for T cell based therapies according to the present invention were further tested for their MHC binding capacity (affinity). The individual peptide-MHC complexes were produced by UV-ligand exchange, where a UV-sensitive peptide is cleaved upon UV-irradiation, and exchanged with the peptide of interest as analyzed. Only peptide candidates that can effectively bind and stabilize the peptide-receptive MHC molecules prevent dissociation of the MHC complexes. […]
assay-metric: Peptide exchange

The cases that follow already have their Peptide exchange on record.
387 (ALFQATAEV; listed as Homo sapiens) [compound 387] ... “++++” (≧75% = ++++)
86 (NLIGKIENV; listed as Homo sapiens) [compound 86] ... “+++” (≧50 = +++)
23 (VLLDDIFAQL; listed as Homo sapiens) [compound 23] ... “+++” (≧50 = +++)
215 (QLINHLHAV; listed as Homo sapiens) [compound 215] ... “+++” (≧50 = +++)
194 (ALPLFVITV; listed as Homo sapiens) [compound 194] ... “+++” (≧50 = +++)

Which measured Peptide exchange value corresponds to 68 (SLMELPRGLFL; listed as Homo sapiens) [compound 68] ?
“++++” (≧75% = ++++)

Which measured Peptide exchange value corresponds to 512 (SLSEIVPCL; listed as Homo sapiens) [compound 512] ?
“+++” (≧50 = +++)

Which measured Peptide exchange value corresponds to 503 (SLNHFTHSV; listed as Homo sapiens) [compound 503] ?
“+++” (≧50 = +++)

Which measured Peptide exchange value corresponds to 67 (TLLAEALVTV; listed as Homo sapiens) [compound 67] ?
“+++” (≧50 = +++)

Which measured Peptide exchange value corresponds to 397 (YLFGERLLEC; listed as Homo sapiens) [compound 397] ?
“+++” (≧50 = +++)

Which measured Peptide exchange value corresponds to 139 (SVMEVNSGIYRV; listed as Homo sapiens) [compound 139] ?
“+++” (≧50 = +++)

Which measured Peptide exchange value corresponds to 381 (FIDEAYVEV; listed as Homo sapiens) [compound 381] ?
“++” (≧20% = ++)

Which measured Peptide exchange value corresponds to 366 (RLLDMGETDLML; listed as Homo sapiens) [compound 366] ?
“+++” (≧50 = +++)

Where do the numbers come from? From patent US20170002055A1.
